This collection of values is drawn from patent US5922711A.

# tested-on: Bradykinin receptor (Cavia porcellus, UniProt O70526)
# Construct: The ileum was removed and homogenized in buffer; from tissue; host or cells: guinea pig ileum, crude membrane suspension
# Sequence (O70526 whole entry): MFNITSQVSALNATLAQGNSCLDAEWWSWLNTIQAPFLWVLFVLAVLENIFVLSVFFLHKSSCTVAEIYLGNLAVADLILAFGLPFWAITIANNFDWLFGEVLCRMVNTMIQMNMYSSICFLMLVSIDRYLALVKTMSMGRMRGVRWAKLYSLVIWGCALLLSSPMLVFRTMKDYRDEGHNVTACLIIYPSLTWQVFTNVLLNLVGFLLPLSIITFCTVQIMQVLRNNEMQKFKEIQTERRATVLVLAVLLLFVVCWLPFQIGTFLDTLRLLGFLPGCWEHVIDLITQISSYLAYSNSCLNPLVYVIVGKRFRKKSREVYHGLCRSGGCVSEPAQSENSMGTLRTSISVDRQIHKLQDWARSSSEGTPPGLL
# measurement-notes: 3H-Bradykinin receptor binding (guinea pig ileum crude membrane)
# test-conditions: concentration: 1 × 10^-6 M, 3H-Bradykinin 0.06 nM, room temperature, 60 minutes
Where a name gives a salt, the structure may show the parent alone.
observation-type: inhibition at 1 µM

1) Cc1ccc2cccc(OCc3c(Cl)ccc(N(C)C(=O)CNC(=O)Nc4cccc(C(=O)N(C)c5cccnc5)c4)c3Cl)c2n1: 100%
2) Cc1ccc2cccc(OCc3c(Cl)ccc(N(C)C(=O)CNC(=O)/C=C/c4ccc(NC(=O)c5ccccn5)cc4)c3Cl)c2n1 [58-(11) (dihydrochloride)]: 99%
3) Cc1ccc2cccc(OCc3c(Cl)ccc(N(C)C(=O)CNC(=O)/C=C/c4ccc(N)cc4)c3Cl)c2n1: 99%
4) CCC(=O)Nc1cccc(NC(=O)NCC(=O)N(C)c2ccc(Cl)c(COc3cccc4ccc(C)nc34)c2Cl)c1 [57 (hydrochloride)]: 99%
5) CCc1cc(Cl)c2cccc(OCc3c(Cl)ccc(N(C)C(=O)CNC(=O)Nc4cccc(C(C)=O)c4)c3Cl)c2n1 [29-(36), hydrochloride]: 98%
6) Cc1ccc2cccc(OCc3c(Cl)ccc(N(C)C(=O)CNC(=O)/C=C/c4ccc(OCCN(C)C)cc4)c3Cl)c2n1 [41-(53), dihydrochloride]: 99%
7) Cc1ccc2cccc(OCc3c(Cl)ccc(N(C)C(=O)CNC(=O)Nc4cccc(N)c4)c3Cl)c2n1 [41-(12), dihydrochloride]: 95%
8) CCNC(=O)NCC(=O)N(C)c1ccc(Cl)c(COc2cccc3c(OC)cc(C)nc23)c1Cl [41-(64), hydrochloride]: 95%
